Tested on: LrAgo (Limnothrix rosea IAM M-220)
test-name: double-filter binding
protocol-conditions: 5'-phosphate
pKd: −log10 of the molar value.
assay-readout: pKd

> print(dat)
                            record.sequence  assay.readout  reported.value
1  GTTAGACTTTAAGTCAAT [18 nt 5'-P guide DNA (G-guide)]            pKd           10.46

* * *

Tested on: LrAgo (Limnothrix rosea IAM M-220)
test-name: competition
protocol-conditions: 5'-hydroxyl
pKd: −log10 of the molar value.
assay-readout: pKd

> print(dat)
                            record.sequence  reported.value
1  GTTAGACTTTAAGTCAAT [18 nt 5'-OH guide DNA (G-guide)]           10.34
